- SYSTEM_TESTED: 6×HIS-tankyrase 1 (1091-1325) (Homo sapiens (Human), UniProt O95271)
- Sequence (O95271 1091-1325): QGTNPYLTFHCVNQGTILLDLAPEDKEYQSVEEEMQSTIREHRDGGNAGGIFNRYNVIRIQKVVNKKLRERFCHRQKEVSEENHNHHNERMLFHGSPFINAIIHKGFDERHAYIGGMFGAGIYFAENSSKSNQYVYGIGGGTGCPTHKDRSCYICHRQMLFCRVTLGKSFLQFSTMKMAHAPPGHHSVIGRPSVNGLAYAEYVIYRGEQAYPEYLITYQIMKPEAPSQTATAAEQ
- ASSAY_TEXT: biochemical
- Assay type: biochemical
- MEASUREMENT_CONDITIONS: […] enzyme, 400 nM NAD, 60 minutes at room temperature; read-out: TNKS1 IP IC50
Item-by-item account of IC50
Give the quantity in nM, number only.

Here are 3 molecules together with their reported answers.
Cc1ccccc1[C@@H]1N(c2ccc(C(=O)Nc3cccc4cccnc34)cc2)C(=O)OC1(C)C = 116
CC1(C)OC(=O)N(c2ccc(-c3nnc4cc(-c5cncnc5)ccn34)cc2)[C@H]1c1ccccc1 = 1970
CC1(C)OC(=O)N(c2ccc(-n3cc(-c4ccccc4)[nH]c3=O)cc2)[C@H]1c1ccccc1 = 3080

Q: Look up and state reported IC50 for `CC1(C)OC(=O)N([C@H]2CC[C@H](N3Cc4cc(C#N)ccc4NC3=O)CC2)[C@H]1c1ccccc1`
Result: 7.63

* * *

- SYSTEM_TESTED: 6×HIS-tankyrase 1 (1091-1325) (Homo sapiens (Human), UniProt O95271)
- ASSAY_TEXT: biochemical
- Type: biochemical
- MEASUREMENT_CONDITIONS: […] enzyme, 400 nM NAD, 60 minutes at room temperature; read-out: TNKS1 IP IC50
MEASURED_METRIC: pIC50
Quick note: pIC50 means taking -log10 of the concentration in moles per liter.

CC1(C)OC(=O)N([C@H]2CC[C@H](NC(=O)c3cn4ccccc4n3)CC2)[C@@H]1c1ccccc1 [Example 162] = 7.00
CC1(C)OC(=O)N(c2ccc(C(=O)Nc3cccc4cccnc34)cc2)[C@H]1c1cccnc1 [Example 11] = 6.41
CC1(C)OC(=O)N(c2ccc(-n3c(=O)oc4ccccc43)cc2)[C@H]1c1ccccc1 [Example 17] = 5.55

Q: Report the value of pIC50 obtained on 6×HIS-tankyrase 1 (1091-1325) (Homo sapiens (Human), UniProt O95271) for CC1(C)OC(=O)N(c2ccc(-n3nnc4ccccc43)cc2)[C@H]1c1ccccc1 [Example 69] .
Result: 5.68

Q: Report the value of pIC50 obtained on 6×HIS-tankyrase 1 (1091-1325) (Homo sapiens (Human), UniProt O95271) for CC1(C)OC(=O)N([C@H]2CC[C@H](c3cnc4cc[nH]c4c3)CC2)[C@H]1c1ccccc1 [Example 171] .
Result: 7.72

Q: Report the value of pIC50 obtained on 6×HIS-tankyrase 1 (1091-1325) (Homo sapiens (Human), UniProt O95271) for CC1(C)OC(=O)N([C@H]2CC[C@H](NC(=O)c3cnn(-c4ccccc4)c3)CC2)[C@H]1c1ccccc1 [Example 161] .
Result: 6.46

Q: Report the value of pIC50 obtained on 6×HIS-tankyrase 1 (1091-1325) (Homo sapiens (Human), UniProt O95271) for CC1(C)OC(=O)N(c2ccc(-c3cc(-c4cccnc4)c[nH]c3=O)cc2)[C@H]1c1ccccc1 [Example 118] .
Result: 6.82

Q: Report the value of pIC50 obtained on 6×HIS-tankyrase 1 (1091-1325) (Homo sapiens (Human), UniProt O95271) for CC1(C)OC(=O)N(c2ccc(C(=O)Nc3cccc4cccnc34)cc2)[C@@H]1c1ccccn1 [Example 122] .
Result: 5.82
